# cell count per record follows
testProtocol: inhibitors of TNFa-induced NFkB p65 translocation, primary screen, imaging, HUVEC, MLSMR starter and 10KST1 sets (AID 438);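 note: compound added about 3h40 before a 20 min TNFalpha stimulation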
experimentalSetup: HUVEC TNFa-induced p65 nuclear translocation; measured here: nuclei count (cytotoxicity indicator), at 2.08 µM
endpointLabel: cell count

In [3]: df
Out[3]:
                                    molecule  endpointlabel  readoutvalue
 0  CCCCN(C(=O)c1ccc(Cl)cc1)C1CC2CCC(C1)N2C (configuration not stated)     cell count           588
 1       COC(=O)/C(C#N)=C1/SC=C(C)N1c1ccccc1     cell count           611
 2  CCOc1ccccc1-n1c(SCC(=O)NC(C)CC)nnc1-c1ccoc1C (configuration not stated)     cell count           608
 3                Clc1ccc(COc2ccccn2)c(Cl)c1     cell count           600
 4   COc1ccc(CNc2nc3nc(C)c(Cl)c(C)n3n2)cc1OC     cell count           684
 5      CCn1nc(NC(=O)c2ccco2)c2cc3ccccc3nc21     cell count           700
 6  CCCC1C(c2ccc(OC)cc2)C(C#N)(C#N)C2(C#N)CC1(N)NC2=O (configuration not stated)     cell count           369
 7                      Nc1nnnn1/N=C/c1ccco1     cell count           510
 8  Cc1cc2c(c(=O)o1)C(CC(C)C)C(C#N)=C(N)O2 (configuration not stated)     cell count           703
 9  CC1=C(C(=O)OCC(C)C)C(c2cc3c(cc2Br)OCO3)NC(=O)N1C (configuration not stated)     cell count           425
10     FC(F)(F)c1cccc(N2CCN(Cc3cccnc3)CC2)c1     cell count           447
11  CCOC(=O)CSc1nnc2n(Cc3ccccc3)c(=O)c3c4c(sc3n12)CCC4     cell count           364
12      CNC(=O)CCn1nc(-c2ccccc2)c2ccccc2c1=O     cell count           737
13       CCc1nc(NCCCN2CCOCC2)c2oc3ccccc3c2n1     cell count           573
14    O=S1(=O)N=C(Nc2nc3c(s2)CCCC3)c2ccccc21     cell count           319
15          O=C(NCCN1CCCCC1)/C(=N\O)c1ccccc1     cell count           515
16  CCOc1cc2[nH]c(=O)n(CCC(=O)NCCc3ccc(OC)c(OC)c3)c(=O)c2cc1OCC     cell count           313
17  COc1cc(NC2c3ccccc3C(=O)N2c2ccc(C)cn2)cc(OC)c1OC (configuration not stated)     cell count           619
18          Cc1c2c([n+]3n1CCC3)CC(C)(C)CC2=O     cell count           617
19         FC(F)(F)c1cccc(N2CCc3cn[nH]c32)c1     cell count           690
20  CCC1CCCCN1CCCNC(=O)CC1Oc2ccc(C)cc2NC1=O (configuration not stated)     cell count           810
21  CC(=O)OCCNc1cc(N2CCN(C)CC2)c2noc3c2c1C(=O)c1ccccc1-3     cell count           746
22  CCOC(=O)c1[nH]c2ccc(F)cc2c1N=C(C)N(CC)CC     cell count           621
23   CCOC(=O)C1=C(N)N2C(=O)CSC2=C(C(=O)OC)C1     cell count           523
24  O=C(Nc1ccc(N2CCN(Cc3ccccc3Cl)CC2)cc1)c1cccnc1     cell count           630
25  Cc1ccc(-c2nn(C)c(=O)c3ccccc23)cc1CN1CCOCC1     cell count           424
26  O=C(Cn1ncc2c(=O)oc3ccccc3c21)NCC1CCCO1 (configuration not stated)     cell count           725
27  CCOC(=O)c1[nH]c(C)c(C(=O)N2CCN(C(=O)c3ccco3)CC2)c1C     cell count           780
28  CCCC(=O)N(c1ccc2oc(=O)sc2c1)S(=O)(=O)c1ccccc1     cell count           318
29  CC(C)CCn1c(=O)c2ccccc2n2c(CN(C)Cc3ccccc3)nnc12     cell count           486
30  Cn1c(NCc2cccnc2)nc2c1c(=O)n(Cc1ccccc1F)c(=O)n2C     cell count           696
31  N#Cc1cccc(-n2c(-c3ccccc3)nnc2-c2ccccc2)c1C#N     cell count           587
32    CCOc1ccc2c(c1)n([O-])c1c([n+]2=O)CCCC1     cell count           345
33   CC(NC(=O)NCCCn1ccnc1)(C(F)(F)F)C(F)(F)F     cell count           679
34       O=C(NCc1cccnc1)NC(C(F)(F)F)C(F)(F)F     cell count           671
35            Cc1c(C)[n+](=O)c2c(n1[O-])CCC2     cell count           529
36         COc1ccc(S(=O)(=O)Nc2ccccc2OC)cc1C     cell count           471

* * *

targetUnderTest: Voltage-gated potassium channel subunit beta-2 (Rattus norvegicus) (UniProt P62483)
Sequence (P62483 whole entry, looked up): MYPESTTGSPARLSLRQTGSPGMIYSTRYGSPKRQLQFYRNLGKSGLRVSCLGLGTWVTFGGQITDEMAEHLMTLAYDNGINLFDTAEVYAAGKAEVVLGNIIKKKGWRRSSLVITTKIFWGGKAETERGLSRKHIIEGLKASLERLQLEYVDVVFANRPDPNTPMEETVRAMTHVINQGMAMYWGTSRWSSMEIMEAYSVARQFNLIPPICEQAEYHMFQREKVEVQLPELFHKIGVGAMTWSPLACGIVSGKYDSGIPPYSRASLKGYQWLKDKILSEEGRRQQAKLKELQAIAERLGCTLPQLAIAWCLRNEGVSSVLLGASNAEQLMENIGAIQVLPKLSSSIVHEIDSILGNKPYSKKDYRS
testProtocol: KvBeta enzyme negative modulators, primary screen, biochemical, NADPH fluorescence (AID 622);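 note: slope of raw intensity against log time taken from 70 to 1610 s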
experimentalSetup: recombinant KvBeta, 4-cyanobenzaldehyde reduction, at 10 µM, stronger effect = higher value
endpointLabel: fluorescence slope

                                   compound       endpointlabel  readoutvalue
0   CCCCc1nc(N2CCOCC2)c(C#N)c2c1COC(C)(C)C2  fluorescence slope        -0.458
1  Cc1c(Cl)cccc1N1C(=O)C2ON(c3ccccc3)C(c3cccnc3)C2C1=O (centres undefined)  fluorescence slope        -0.497
2  CCOC(=O)C1CCCN(c2nc3ccccc3nc2C(C#N)C(=O)OC(C)COC)C1 (centres undefined)  fluorescence slope        -0.495
3       CCOC(=O)c1ccc2[nH]c3c(c2c1)CN(C)CC3  fluorescence slope        -0.543
4  O=C1CC(c2ccccc2)n2nc(N3C(=O)c4ccccc4C3=O)nc2N1 (centres undefined)  fluorescence slope        -0.441
5  CCOC(=O)Nc1ccc2c(c1)N(C(=O)OCCN(C)C)c1ccccc1CC2  fluorescence slope        -0.563
6           O=c1oc2ccccc2c(O)c1C=NCc1ccccn1  fluorescence slope        -0.509
7  CC1CCN(S(=O)(=O)c2cn(CC(=O)N3CCN(C)CC3)c(=O)c3ccccc23)CC1  fluorescence slope        -0.604
8       C=CCc1cccc(CNc2nc3ccccc3n2C(C)C)c1O  fluorescence slope        -0.502

* * *

testProtocol: inhibitors of TNFa-induced NFkB p65 translocation, primary screen, imaging, HUVEC, MLSMR starter and 10KST1 sets (AID 438);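 note: compound added about 3h40 before a 20 min TNFalpha stimulation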;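 for inhibition: signal is the nuclear over cytoplasmic p65 intensity ratio per well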
experimentalSetup: HUVEC TNFa-induced p65 nuclear translocation; at 2 µM, stronger effect = higher value, 0% TNFa-plus-vehicle, 100% no-TNFa wells
# inhibition per record follows
endpointLabel: inhibition (%)

>>> df
                                    compound  readoutvalue
 0  CCOc1cccc(-c2nnc3sc(COc4ccc(OC)cc4)nn23)c1           7.7
 1  CCOC(=O)c1c(NC(=O)CN2CCOCC2)sc2c1CC(C)(C)OC2         -12.5
 2  CCCOc1cccc(C(=O)Nc2cc(NC(=O)c3ccco3)ccc2OC)c1           3.8
 3  CC1CC(C)CN(Cc2nc3c(c(=O)n(C)c(=O)n3C)n2Cc2ccccc2Cl)C1 (configuration not stated)         -16.8
 4        CCOCCn1c(SC)nc2c1c(=O)[nH]c(=O)n2C           6.3
 5  COC(=O)C(NC(C)=O)(Nc1ccc(Br)cn1)C(F)(F)F (configuration not stated)           1.7
 6  CCCN1CCN(C(=O)Cn2c(=O)oc3cc(S(=O)(=O)NCc4ccccc4)ccc32)CC1           1.6
 7                COc1ccc2c(c1)cc(C(=O)O)n2C           4.2
 8  Nn1c(Cc2ccccc2F)nnc1SCC(=O)N1CC(=O)Nc2ccccc21          20.7
 9  O=C(NCC(=O)N(c1ccc2c(c1)OCCO2)C(C(=O)NC1CCCC1)c1ccco1)c1ccco1 (configuration not stated)          17.9
10              O=c1oc2c3c4c(cc2s1)CCCN4CCC3           7.4
11  Cn1c(NCc2cccnc2)nc2c1c(=O)n(Cc1ccccc1F)c(=O)n2C             3
12               C=CCNS(=O)(=O)c1ccc2nsnc2c1           2.2
13      COC(=O)c1c(NC(=O)CSc2nnnn2C)sc(C)c1C          -0.5
14           CN(C)C(=O)c1ccc(COc2ccccc2Br)o1           -11
15  O=C(Nc1ccc(N2CCN(Cc3ccccc3Cl)CC2)cc1)c1cccnc1          -4.2
16  CCN(CC)CCN1C(=O)C(O)=C(C(=O)c2cccs2)C1c1ccc(C)o1 (configuration not stated)          12.4
17        CCOC(=O)CC(=O)CSc1nnc2sc3ccccc3n12         -14.5
18         COc1cccc(C(=O)c2sc(NC(C)C)nc2N)c1         -11.5
19  COc1ccc(CCNC(=O)CCN2C(=O)C3CC=CCC3C2=O)cc1OC (configuration not stated)          -1.1
20  CCOC(=O)N1CCN(c2c(NCCCOC(C)C)c(=O)c2=O)CC1          -1.6
21  CC1CCCCC1NC(=O)CN1CCN(Cc2ccccc2Cl)C1=O (configuration not stated)          -0.2
22       CCOc1ccc(N=C(NC#N)SCC(=O)NC2CC2)cc1          -1.5
23               CSc1nc2sc3c(c2c2nncn12)CCC3          -9.4
24             O=C(NC1CCCC1)c1ccc2nc[nH]c2c1          10.2
25  O=C(Nc1ccccc1)N1CCC(c2ccccc2)C1 (configuration not stated)          23.5
26  Cc1ccccc1N1C(=O)CC(Sc2nnc(-c3ccccc3)o2)C1=O (configuration not stated)          -2.4
